- Measurement Notes: Pharmacokinetic study in rats after oral administration of R. officinalis extract (UHPLC-ESI-MS/MS of plasma)
- Format: in vivo, Sprague-Dawley (SD) rats
- Settings: male, Sprague-Dawley; rat plasma, oral R. officinalis extract 2.45 g/kg (high dose), n = 6
Observable: Tmax (min)
Write the number in min without appending the unit.

Query block: # query: Tmax of entry CC(C)c1cc2c(c(O)c1O)[C@@]13CCCC(C)(C)[C@@H]1[C@H](OC3=O)[C@H]2O
Result block: 33

Query block: Next record, please: CC(C)c1cc2c(c(O)c1O)[C@@]1(C(=O)O)CCCC(C)(C)[C@@H]1CC2
Result block: 30

Query block: Next record, please: CC(C)c1cc2c(c(O)c1O)[C@@]13CCCC(C)(C)[C@@H]1C[C@@H]2OC3=O
Result block: 42

====

- Measurement Notes: Pharmacokinetic study in rats after oral administration of R. officinalis extract (UHPLC-ESI-MS/MS of plasma)
- Type: in vivo, Sprague-Dawley (SD) rats
- Settings: male, Sprague-Dawley; rat plasma, oral R. officinalis extract 2.45 g/kg (high dose), n = 6
Observable: AUC(0-t) (ng·h/mL)
Write the number in ng·h/mL without appending the unit.

Query block: # query: AUC(0-t) of entry CC(C)c1cc2c(c(O)c1O)[C@@]13CCCC(C)(C)[C@@H]1C[C@@H]2OC3=O
Result block: 14000

Query block: Next record, please: CC(C)c1cc2c(c(O)c1O)[C@@]13CCCC(C)(C)[C@@H]1[C@H](OC3=O)[C@H]2O
Result block: 5370

Query block: Next record, please: CC(C)c1cc2c(c(O)c1O)[C@@]1(C(=O)O)CCCC(C)(C)[C@@H]1CC2
Result block: 146000

====

- Measurement Notes: Pharmacokinetic study in rats after oral administration of R. officinalis extract (UHPLC-ESI-MS/MS of plasma)
- Format: in vivo, Sprague-Dawley (SD) rats
- Settings: male, Sprague-Dawley; rat plasma, oral R. officinalis extract 0.24 g/kg (low dose), n = 6
Observable: AUC(0-t) (ng·h/mL)
Write the number in ng·h/mL without appending the unit.

Query block: # query: AUC(0-t) of entry CC(C)c1cc2c(c(O)c1O)[C@@]13CCCC(C)(C)[C@@H]1[C@H](OC3=O)[C@H]2O
Result block: 460

Query block: Next record, please: CC(C)c1cc2c(c(O)c1O)[C@@]13CCCC(C)(C)[C@@H]1C[C@@H]2OC3=O
Result block: 1470

Query block: Next record, please: CC(C)c1cc2c(c(O)c1O)[C@@]1(C(=O)O)CCCC(C)(C)[C@@H]1CC2
Result block: 9140

====

Record form. Attribute: Cmax. Fill in for each entry.
- Measurement Notes: Pharmacokinetic study in rats after oral administration of R. officinalis extract (UHPLC-ESI-MS/MS of plasma)
- Type: in vivo, Sprague-Dawley (SD) rats
- Settings: male, Sprague-Dawley, rat, plasma, po, 2.45 g/kg, rat plasma, oral R. officinalis extract 2.45 g/kg (high dose), n = 6; read-out: Cmax
Write the number in ng/mL without appending the unit.

Query block: # query: Cmax of entry CC(C)c1cc2c(c(O)c1O)[C@@]1(C(=O)O)CCCC(C)(C)[C@@H]1CC2
Result block: 27500

Query block: Next record, please: CC(C)c1cc2c(c(O)c1O)[C@@]13CCCC(C)(C)[C@@H]1[C@H](OC3=O)[C@H]2O
Result block: 633

Query block: Next record, please: CC(C)c1cc2c(c(O)c1O)[C@@]13CCCC(C)(C)[C@@H]1C[C@@H]2OC3=O
Result block: 1480

====

- Measurement Notes: Pharmacokinetic study in rats after oral administration of R. officinalis extract (UHPLC-ESI-MS/MS of plasma)
- Assay type: in vivo, Sprague-Dawley (SD) rats
- Settings: male, Sprague-Dawley; rat plasma, oral R. officinalis extract 0.82 g/kg (medium dose), n = 6
Observable: AUC(0-t) (ng·h/mL)
Write the number in ng·h/mL without appending the unit.

Query block: # query: AUC(0-t) of entry CC(C)c1cc2c(c(O)c1O)[C@@]13CCCC(C)(C)[C@@H]1[C@H](OC3=O)[C@H]2O
Result block: 678

Query block: Next record, please: CC(C)c1cc2c(c(O)c1O)[C@@]1(C(=O)O)CCCC(C)(C)[C@@H]1CC2
Result block: 28500

Query block: Next record, please: CC(C)c1cc2c(c(O)c1O)[C@@]13CCCC(C)(C)[C@@H]1C[C@@H]2OC3=O
Result block: 3190

====

Record form. Attribute: AUC(0-inf). Fill in for each entry.
- Measurement Notes: Pharmacokinetic study in rats after oral administration of R. officinalis extract (UHPLC-ESI-MS/MS of plasma)
- Assay type: in vivo, Sprague-Dawley (SD) rats
- Settings: male, Sprague-Dawley; rat plasma, oral R. officinalis extract 0.82 g/kg (medium dose), n = 6
Write the number in ng·h/mL without appending the unit.

Query block: # query: AUC(0-inf) of entry CC(C)c1cc2c(c(O)c1O)[C@@]1(C(=O)O)CCCC(C)(C)[C@@H]1CC2
Result block: 40000

Query block: Next record, please: CC(C)c1cc2c(c(O)c1O)[C@@]13CCCC(C)(C)[C@@H]1C[C@@H]2OC3=O
Result block: 7360

Query block: Next record, please: CC(C)c1cc2c(c(O)c1O)[C@@]13CCCC(C)(C)[C@@H]1[C@H](OC3=O)[C@H]2O
Result block: 826

====

- Measurement Notes: Pharmacokinetic study in rats after oral administration of R. officinalis extract (UHPLC-ESI-MS/MS of plasma)
- Assay type: in vivo, Sprague-Dawley (SD) rats
- Settings: male, Sprague-Dawley, rat, plasma, po, 0.24 g/kg, rat plasma, oral R. officinalis extract 0.24 g/kg (low dose), n = 6; read-out: Cmax
Record form. Attribute: Cmax. Fill in for each entry.
Lab note: write values as number then unit, every time.

Query block: # query: Cmax of entry CC(C)c1cc2c(c(O)c1O)[C@@]13CCCC(C)(C)[C@@H]1[C@H](OC3=O)[C@H]2O [Rosmanol]
Result block: 77.2 ng/mL

Query block: Next record, please: CC(C)c1cc2c(c(O)c1O)[C@@]13CCCC(C)(C)[C@@H]1C[C@@H]2OC3=O [Carnosol]
Result block: 217 ng/mL

Query block: Next record, please: CC(C)c1cc2c(c(O)c1O)[C@@]1(C(=O)O)CCCC(C)(C)[C@@H]1CC2 [Carnosic acid]
Result block: 1210 ng/mL
